# ASSAY_PROCEDURE: APR_HepG2_MicrotubuleCSK_24hr: Apredica 24-hour HepG2 Assay for Microtubule CSK Stabilty (AID 2282909)
# CONDITION_PARAMETERS: HepG2 microtubule cytoskeleton imaging, actives raise or lower the signal
Active and inactive are the calls of the source. The calls were made as follows: active = hit-call score of the fitted dose curve at least 0.9, where 1 is the maximum; inactive = score below 0.9.
Possible outcomes: active, inactive

MOLECULE: CCC(C)OC(=O)N1CCCCC1CCO (centres undefined)
CATEGORY: inactive
--
MOLECULE: Cc1nn(C)c(Oc2ccccc2)c1C=NOCc1ccc(C(=O)OC(C)(C)C)cc1
CATEGORY: inactive
--
MOLECULE: CN(C)C(=O)Nc1ccc(Cl)c(Cl)c1
CATEGORY: inactive
--
MOLECULE: C#CCOC(=O)[C@@H](C)Oc1ccc(Oc2ncc(Cl)cc2F)cc1
CATEGORY: inactive
--
MOLECULE: O=C(O)c1ccccc1
CATEGORY: inactive
--
MOLECULE: CCCCOCCOCCOCc1cc2c(cc1CCC)OCO2
CATEGORY: active
--
MOLECULE: C[C@]12CC[C@@H]3c4ccc(O)cc4C[C@@H](CCCCCCCCCS(=O)CCCC(F)(F)C(F)(F)F)[C@H]3[C@@H]1CC[C@@H]2O (some centres undefined)
CATEGORY: inactive
--
MOLECULE: CSC(=O)c1cccc2nnsc12
CATEGORY: inactive
--
MOLECULE: C#C[C@]1(O)CC[C@H]2[C@@H]3CCC4=CC(=O)CC[C@@H]4[C@H]3CC[C@@]21CC
CATEGORY: inactive
--
MOLECULE: CCCCCCC(C)OC(=O)COc1nc(F)c(Cl)c(N)c1Cl (centres undefined)
CATEGORY: active
--
MOLECULE: CCOC(=O)NCCOc1ccc(Oc2ccccc2)cc1
CATEGORY: inactive
--
MOLECULE: CCCCC(CC)COC(=O)c1ccccc1C(=O)O (centres undefined)
CATEGORY: inactive
--
MOLECULE: CC(C)(C)[C@@H](O)[C@@H](Cc1ccc(Cl)cc1)n1cncn1
CATEGORY: inactive
--
MOLECULE: CCOC(=O)COc1cc(-n2ncc(C(F)(F)F)c(C)c2=O)c(F)cc1Cl
CATEGORY: inactive
--
MOLECULE: CCCCC(CC)CN1C(=O)C2C3C=CC(C3)C2C1=O (centres undefined)
CATEGORY: active
--
MOLECULE: CCOC(=O)c1ccc(O)cc1
CATEGORY: inactive
--
MOLECULE: CCSC(=O)N(CC(C)C)CC(C)C
CATEGORY: inactive
--
MOLECULE: CCN(Cc1c(F)cccc1Cl)c1c([N+](=O)[O-])cc(C(F)(F)F)cc1[N+](=O)[O-]
CATEGORY: inactive
--
MOLECULE: COC(=O)c1c(Cl)nn(C)c1S(=O)(=O)NC(=O)Nc1nc(OC)cc(OC)n1
CATEGORY: inactive

---

# ASSAY_PROCEDURE: BSK_SAg_PBMCCytotoxicity: PBMC Cytotoxicity Assessment in the BioMAP Diversity Plus: SAg Assay (AID 2283093);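 also: PBMC viability measured as Alamar Blue reduction fluorescence at 546/580 nm; fitted both ways against DMSO so a hit may be loss or gain of signal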
# CONDITION_PARAMETERS: primary human HUVEC with PBMC
Activity calls are given as the source filed them. Rule for the calls: active = hit-call score of the fitted dose curve at least 0.9, where 1 is the maximum; inactive = score below 0.9.
Possible outcomes: active, inactive

STRUCTURE_SMILES_STRING: CCN(Cc1c(F)cccc1Cl)c1c([N+](=O)[O-])cc(C(F)(F)F)cc1[N+](=O)[O-]
CATEGORY: active

STRUCTURE_SMILES_STRING: O=C(c1ccc(O)cc1O)c1ccc(O)cc1O
CATEGORY: inactive

STRUCTURE_SMILES_STRING: CN(C)C(=O)Nc1ccc(Cl)c(Cl)c1
CATEGORY: inactive

STRUCTURE_SMILES_STRING: CCCCCOC(=O)COc1cc(N2C(=O)C3=C(CCCC3)C2=O)c(F)cc1Cl
CATEGORY: inactive

---

# ASSAY_PROCEDURE: ATG_AP_1_CIS: Attagene CIS-FACTORIAL HepG2 Assay for human Activator Protein 1 (AP-1) (AID 2282931)
# CONDITION_PARAMETERS: HepG2 Attagene cis-factorial AP-1 reporter mRNA; actives raise or lower the signal
Activity calls are given as the source filed them. How the source made its calls: active means hit-call score of the fitted dose curve at least 0.9, where 1 is the maximum; inactive means score below 0.9.
Possible outcomes: YES = active, NO = inactive

COMPOUND: CC1(C)C(C=C(Cl)Cl)C1C(=O)OCc1cccc(Oc2ccccc2)c1 (centres undefined)
CATEGORY: NO
//
COMPOUND: CCCCOCCOCCOCc1cc2c(cc1CCC)OCO2
CATEGORY: YES
//
COMPOUND: CCC(C)OC(=O)N1CCCCC1CCO (centres undefined)
CATEGORY: NO
//
COMPOUND: CCN(CC)C(=O)c1cccc(C)c1
CATEGORY: NO
//
COMPOUND: O=C(c1ccc(O)cc1O)c1ccc(O)cc1O
CATEGORY: NO
//
COMPOUND: CCOC(=O)C(C)Oc1ccc(Oc2nc3ccc(Cl)cc3o2)cc1 (centres undefined)
CATEGORY: NO
//
COMPOUND: C#C[C@]1(O)CC[C@H]2[C@@H]3CCC4=CC(=O)CC[C@@H]4[C@H]3CC[C@@]21CC
CATEGORY: NO
//
COMPOUND: CCCCOC(=O)[C@@H](C)Oc1ccc(Oc2ccc(C(F)(F)F)cn2)cc1
CATEGORY: NO
//
COMPOUND: CCOC(=O)C(C)Oc1ccc(Oc2cnc3cc(Cl)ccc3n2)cc1 (centres undefined)
CATEGORY: NO

---

# Read-out: Apoptosis regulator Bcl-2 (Homo sapiens)
# ASSAY_PROCEDURE: LTEA_HepaRG_BCL2: Life Technologies and Expression Analysis (LTEA) Assay for Bcl-2 gene using HepaRG (AID 2283475);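 also: BCL2 transcript by TaqMan qRT-PCR normalised to ACTB GAPDH and POLR2A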
# CONDITION_PARAMETERS: mRNA level, 48 h; actives raise or lower the signal
The source made the active and inactive calls. How the source made its calls: active means hit-call score of the fitted dose curve at least 0.9, where 1 is the maximum; inactive means score below 0.9.

COMPOUND: CCCCCOC(=O)COc1cc(N2C(=O)C3=C(CCCC3)C2=O)c(F)cc1Cl
outcome: inactive

COMPOUND: CCCCC(CC)COC(=O)c1ccccc1C(=O)O (stereo not drawn)
outcome: inactive

COMPOUND: CCSC(=O)N(CC(C)C)CC(C)C
outcome: inactive

---

# Read-out: serum amyloid A (SAA), SAA1 (gene 6288)
# ASSAY_PROCEDURE: BSK_CASM3C_SAA: BioMAP Diversity Plus: CASM3C Assay for serum amyloid A (SAA) Biomarker Activity (AID 2283049);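 also: SAA protein level quantified by ELISA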
# CONDITION_PARAMETERS: primary human coronary artery smooth muscle cells; actives raise or lower the signal
Active and inactive are the calls of the source. How the source made its calls: active means hit-call score of the fitted dose curve at least 0.9, where 1 is the maximum; inactive means score below 0.9.
Possible outcomes: active, inactive

COMPOUND: CCSC(=O)N(CC(C)C)CC(C)C
CATEGORY: inactive
//
COMPOUND: CSC(=O)c1cccc2nnsc12
CATEGORY: inactive
//
COMPOUND: CCOC(=O)C(C)Oc1ccc(Oc2cnc3cc(Cl)ccc3n2)cc1 (stereo not given)
CATEGORY: inactive
//
COMPOUND: CCCCOCCOCCOCc1cc2c(cc1CCC)OCO2
CATEGORY: inactive
//
COMPOUND: CCCN(CCC)C(=O)SCC
CATEGORY: inactive
//
COMPOUND: CC(C)CCCCCCc1ccc(O)cc1
CATEGORY: active
//
COMPOUND: CCCCC(CC)COC(=O)c1ccccc1C(=O)O (stereo not given)
CATEGORY: inactive
//
COMPOUND: CC(C)(c1ccc(O)cc1)c1ccc(O)cc1
CATEGORY: inactive
//
COMPOUND: CCCCCCC(C)OC(=O)COc1nc(F)c(Cl)c(N)c1Cl (stereo not given)
CATEGORY: active
//
COMPOUND: CC(=O)[C@H]1CC[C@H]2[C@@H]3CCC4=CC(=O)CC[C@]4(C)[C@H]3CC[C@]12C
CATEGORY: inactive

---

# ASSAY_PROCEDURE: BSK_SAg_Proliferation: Cell Proliferation Assessment in the BioMAP Diversity Plus: SAg Assay (AID 2283095);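 also: relative cell number as total protein by SRB absorbance in sub-confluent culture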
# CONDITION_PARAMETERS: primary human HUVEC with PBMC
The source made the active and inactive calls. The calls were made as follows: active = hit-call score of the fitted dose curve at least 0.9, where 1 is the maximum; inactive = score below 0.9.
Possible outcomes: active, inactive

MOLECULE: CC1(C)C(C=C(Cl)Cl)C1C(=O)OCc1cccc(Oc2ccccc2)c1 (stereo not given)
CATEGORY: active
--
MOLECULE: CC(=O)S[C@@H]1CC2=CC(=O)CC[C@]2(C)[C@H]2CC[C@@]3(C)[C@@H](CC[C@@]34CCC(=O)O4)[C@H]12
CATEGORY: active
--
MOLECULE: CCOC(=O)COc1cc(-n2ncc(C(F)(F)F)c(C)c2=O)c(F)cc1Cl
CATEGORY: inactive
--
MOLECULE: CCCN(CCC)c1c([N+](=O)[O-])cc(C(F)(F)F)c(N)c1[N+](=O)[O-]
CATEGORY: active
--
MOLECULE: OB(O)O
CATEGORY: inactive

---

# Read-out: Pselectin, SELP (gene 6403)
# ASSAY_PROCEDURE: BSK_4H_Pselectin: BioMAP Diversity Plus: 4H Assay for Pselectin Biomarker Activity (AID 2283026)
# CONDITION_PARAMETERS: primary human endothelial cells (HUVEC); actives raise or lower the signal
Active and inactive are the calls of the source. How the source made its calls: active means hit-call score of the fitted dose curve at least 0.9, where 1 is the maximum; inactive means score below 0.9.
Possible outcomes: active, inactive

STRUCTURE_SMILES_STRING: CCCN(CCC)C(=O)SCC
CATEGORY: inactive
//
STRUCTURE_SMILES_STRING: CCCCOCCOCCOCc1cc2c(cc1CCC)OCO2
CATEGORY: inactive
//
STRUCTURE_SMILES_STRING: CCN(CC)C(=O)c1cccc(C)c1
CATEGORY: inactive
//
STRUCTURE_SMILES_STRING: CC(=O)[C@H]1CC[C@H]2[C@@H]3CCC4=CC(=O)CC[C@]4(C)[C@H]3CC[C@]12C
CATEGORY: active
//
STRUCTURE_SMILES_STRING: O=C(c1ccccc1)C1CCCCC1
CATEGORY: inactive
//
STRUCTURE_SMILES_STRING: CN(C)C(=O)Nc1ccc(Cl)c(Cl)c1
CATEGORY: inactive
//
STRUCTURE_SMILES_STRING: CCCOC(=O)c1ccc(C(=O)OCCC)nc1
CATEGORY: inactive
//
STRUCTURE_SMILES_STRING: CSC(=O)c1cccc2nnsc12
CATEGORY: inactive
